Value source: ChEMBL document CHEMBL5143637

# Test system: Mycobacterium marinum
# assay_summary: Antimycobacterial activity against Mycobacterium marinum ATCC BAA-535/M assessed as inhibition of mycobacterial growth incubated for 10 to 14 days by resazurin microtiter assay
# Format: functional
# study_conditions: time 10-14 day
// boundary case: MIC50 equal to 20 µg/mL maps to false (0); strictly smaller maps to true (1)

QUERY: Check if MIC50 falls below 20 µg/mL for `NNC(=O)/C=C/c1cccc(C(F)(F)F)c1` .
RESULT: false (0)

QUERY: Check if MIC50 falls below 20 µg/mL for `O=C(/C=C/c1ccc2c(c1)OCO2)NO` .
RESULT: false (0)

QUERY: Check if MIC50 falls below 20 µg/mL for `NNC(=O)/C=C/c1ccc(C(F)(F)F)cc1` .
RESULT: false (0)

QUERY: Check if MIC50 falls below 20 µg/mL for `COc1ccc(/C=C/C(=O)NO)cc1` .
RESULT: false (0)

QUERY: Check if MIC50 falls below 20 µg/mL for `CCCCCCONC(=O)/C=C/C=C/c1ccc(F)cc1` .
RESULT: false (0)

QUERY: Check if MIC50 falls below 20 µg/mL for `O=C(/C=C/C=C/c1ccccc1)NO` .
RESULT: true (1)

QUERY: Check if MIC50 falls below 20 µg/mL for `O=C(/C=C/C=C/c1ccc(-c2ccccc2)cc1)NO` .
RESULT: false (0)

QUERY: Check if MIC50 falls below 20 µg/mL for `O=C(/C=C/c1ccccc1)NO` .
RESULT: true (1)

---

# assay_summary: Cytotoxicity against C57BL/6 mouse BMDM cells assessed as reduction in cell viability measured after 24 hrs by resazurin dye based assay
# Assay type: toxicity
# study_conditions: C57BL/6, mouse, BMDM cells (bone marrow-derived macrophages)
experimental_readout: CC50 at 24 h (µg/mL)
API: value field is a number in µg/mL; no unit string.

A selection of reference data follows.
QUERY: Sample `CCCCOc1ccc(/C=C/C=C/C(=O)NN)cc1` — what was its CC50 at 24 h?
RESULT: 65

QUERY: Sample `COc1ccc(/C=C/C=C/C(=O)NN)cc1` — what was its CC50 at 24 h?
RESULT: 120

Kindly consider the entry below.
QUERY: Sample `O=C(/C=C/c1ccc(-c2ccccc2)cc1)NO` — what was its CC50 at 24 h?
RESULT: 16

---

Recorded CC50 at 24 h for the following molecules
# assay_summary: Cytotoxicity against C57BL/6 mouse BMDM cells assessed as reduction in cell viability measured after 24 hrs by resazurin dye based assay
# Format: toxicity
# study_conditions: C57BL/6, mouse, BMDM cells (bone marrow-derived macrophages)

A selection of reference data follows.
QUERY: Sample `NNC(=O)/C=C/c1ccc2c(c1)OCO2` — what was its CC50 at 24 h?
RESULT: 123 µg/mL

QUERY: Sample `O=C(/C=C/c1cccc(C(F)(F)F)c1)NO` — what was its CC50 at 24 h?
RESULT: < 10 µg/mL

QUERY: Sample `O=C(/C=C/C=C/c1ccncc1)NO` — what was its CC50 at 24 h?
RESULT: < 10 µg/mL

QUERY: Sample `O=C(/C=C/c1ccccc1)NO` — what was its CC50 at 24 h?
RESULT: < 10 µg/mL

QUERY: Sample `NNC(=O)/C=C/C=C/c1cccc(F)c1` — what was its CC50 at 24 h?
RESULT: > 125 µg/mL

QUERY: Sample `O=C(/C=C/C=C/c1ccc(F)cc1)NO` — what was its CC50 at 24 h?
RESULT: < 10 µg/mL

Next:
QUERY: Sample `CCCCCC(=O)ONC(=O)/C=C/C=C/c1ccc(OC)cc1` — what was its CC50 at 24 h?
RESULT: < 10 µg/mL

QUERY: Sample `O=C(/C=C/C=C/c1ccccc1)NO` — what was its CC50 at 24 h?
RESULT: < 10 µg/mL
